# System: SF-539 CNS
# EXPERIMENTAL PROTOCOL: NCI-60 one-dose screen, 48 h (100 = growth as untreated, 0 = no growth, -100 = all killed)
# CONDITION DESCRIPTION: 10 µM unless noted
Compounds without any hit were thinned out: in the full panel of roughly 83,000, 20% have a hit.
Listing of recorded growth by entry.

# COMPOUND, TESTED SYSTEM, UNIT TAG, growth
data = [
    ("CNC(=O)c1[nH]cc(-c2ccccc2)c1-c1cc(OC)c2c(c1OC)OCO2", "SF-539 CNS", "%", 102),
    ("Cc1oc2nc[nH]c(=O)c2c1C(=O)/C=C/c1ccc(Br)cc1", "SF-539 CNS", "%", -9.63),
    ("CCN(CC)CCNC(=O)c1cn2ncnc(Oc3ccc(NC(=O)Nc4ccc(Cl)c(C(F)(F)F)c4)cc3)c2c1C", "SF-539 CNS", "%", -93.1),
    ("COc1ccc2sc3c(NCCCN(C)C)nc4ccccc4c3c(=O)c2c1", "SF-539 CNS", "%", 1.35),
    ("COc1cc(Nc2cn[nH]c2-c2ccc(Cl)cc2)cc(OC)c1OC", "SF-539 CNS", "%", 43.4),
    ("CCOC(=O)/C(C#N)=C\\Nc1ccc2ncnc(Nc3ccc(Cl)cc3Cl)c2c1", "SF-539 CNS", "%", 92.7),
    ("Clc1ccc(C(/C=C/c2sc(Cl)nc2Cl)=N/Nc2cc(Cl)cc(Cl)c2)cc1", "SF-539 CNS", "%", 106),
    ("CN(C(=O)NCc1cccc(F)c1Cl)[C@H](COC(=O)Nc1cc2ccccc2cn1)CC(O)CO (some centres undefined)", "SF-539 CNS", "%", 37),
    ("N[C@@H](Cc1ccccc1)[C@@H](O)C(=O)NCc1ccc(F)cc1", "SF-539 CNS", "%", 105),
    ("O=C(/C=C/c1sc(Cl)nc1Cl)c1ccccc1", "SF-539 CNS", "%", 72.3),
    ("COc1ccc(S(=O)(=O)n2c3ccccc3n3ncc(-c4nnc(C)o4)c23)cc1", "SF-539 CNS", "%", -1.67),
    ("O=C1CSC(c2c(Cl)cccc2Cl)N1c1nc(Cl)cc(=O)[nH]1 (centres undefined)", "SF-539 CNS", "%", 102),
    ("O=C(Nc1ccc(OS(=O)(=O)c2ccc(F)cc2)cc1)c1ccc(Cl)cc1", "SF-539 CNS", "%", 108),
    ("CCc1ccc(Oc2c(-c3ccc(OCc4ccc(Cl)cc4)cc3O)nn(C)c2C(F)(F)F)cc1", "SF-539 CNS", "%", 2.68),
    ("COC(=O)Nc1ccc(-c2nc(-c3cccc(OC)c3)c(-c3ccnc(Br)c3)[nH]2)cc1", "SF-539 CNS", "%", 51.6),
    ("COc1nc2ccc(C)cc2cc1-c1nc2c(cnn2-c2ccc(Br)cc2)c(=O)[nH]1", "SF-539 CNS", "%", 12.1),
    ("N#CC1=C(N)Oc2c(sc3c(Br)cccc23)C1c1ccc([N+](=O)[O-])cc1 (centres undefined)", "SF-539 CNS", "%", -18),
    ("Cc1nc(/N=C(\\N)NC(=O)Nc2ccccc2Cl)sc1C", "SF-539 CNS", "%", 0.177),
    ("CCC(C)(c1cc(C(C)(C)C)c(O)c(C(C)(C)C)c1)c1cc(C(C)(C)C)c(O)c(C(C)(C)C)c1", "SF-539 CNS", "%", 105),
    ("CC1=C([Se]CC(OC(=O)[C@@H](CSSC(C)(C)C)NC(=O)OC(C)(C)C)C(=O)NC(C)(C)C)C(=O)c2ccccc2C1=O (some centres undefined)", "SF-539 CNS", "%", -100),
    ("COc1cc(/C=N/NC(=O)c2ccc(C)nc2)cc(OC)c1OC", "SF-539 CNS", "%", 97.6),
    ("Nc1ccccc1-c1cc2c(c3c1[nH]c1ccccc13)CCCCC2", "SF-539 CNS", "%", 116),
    ("O=C(/C=C/c1cccc2ccccc12)c1ccc(NC(=O)c2ccccc2CN2C(=O)c3ccccc3C2=O)cc1", "SF-539 CNS", "%", 90.2),
    ("COc1cccc(Cc2nn3cc(-c4ccccc4)nc3s2)c1", "SF-539 CNS", "%", 102),
    ("CCCCCCCCCCCCCCCCCCOc1ccccc1CCCOP(=O)(O)OCC[N+](C)(C)C", "SF-539 CNS", "%", 91.4),
    ("Cc1[nH]c(C(=O)Nc2ccc(C(=O)N3CCNCC3)cc2OC(C)C)c(Cl)c1Cl", "SF-539 CNS", "%", 80.8),
    ("COc1ccc(OC)c(/C=C/C(=O)N/N=C/c2ccccc2)c1", "SF-539 CNS", "%", 51.8),
    ("Nc1cc2c(cc1Br)-c1cc(Cl)ccc1C2=O", "SF-539 CNS", "%", 99.2),
    ("CN(C)CCS(=O)(=O)Nc1cc(-c2ccc3ncc(C#N)c(Nc4ccc(F)c(Cl)c4)c3c2)cnc1Cl", "SF-539 CNS", "%", -36.4),
    ("CCCCCCCNC(=O)CCCNc1ncnc2c1ncn2-c1cccc(C(C)O)c1 (centres undefined)", "SF-539 CNS", "%", 94.1),
    ("O=C1NC(=O)C(c2ccccc2)(c2ccccc2)N1Cc1cn(-c2c3ccccc3nc3ccccc23)nn1", "SF-539 CNS", "%", 98.5),
    ("COc1cc2cc(Oc3ccc(NC(=O)Nc4cc(C(F)(F)F)cc(C(F)(F)F)c4)cc3)c(C)nc2cc1OCCN1CCOCC1", "SF-539 CNS", "%", 38.5),
    ("CN(C)c1ccc2nc3ccc(=[N+](C)C)c([N+](=O)[O-])c-3sc2c1", "SF-539 CNS", "%", 36.6),
    ("COc1cc(OCc2cccc(-c3ccc(C(O)c4nccs4)cc3)c2C)cc(OC)c1CNCCNC(C)=O (centres undefined)", "SF-539 CNS", "%", 101),
]
